Reference for the values: patent US20200024330A1

Target entity: HIV-1 93UG077 envelope glycoprotein (Env) (HIV-1)
Assay remarks: cell-based or functional assay
Please provide measured IC50 neutralization for the entries that follow.
Supply the numeric figure in µg/mL, leaving out any unit text.

Suppose we examine the binder PGT-125 (antibody, V domains shown) VH: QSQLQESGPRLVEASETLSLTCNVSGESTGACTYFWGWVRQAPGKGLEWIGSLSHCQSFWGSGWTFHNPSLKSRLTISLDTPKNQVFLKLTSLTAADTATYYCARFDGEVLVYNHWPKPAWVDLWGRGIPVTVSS VL: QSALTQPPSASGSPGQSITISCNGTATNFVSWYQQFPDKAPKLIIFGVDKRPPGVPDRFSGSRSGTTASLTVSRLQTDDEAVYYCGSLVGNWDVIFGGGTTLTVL ; what IC50 neutralization value has been reported?
0.0262

Record: PGT-126 (antibody, V domains shown) VH: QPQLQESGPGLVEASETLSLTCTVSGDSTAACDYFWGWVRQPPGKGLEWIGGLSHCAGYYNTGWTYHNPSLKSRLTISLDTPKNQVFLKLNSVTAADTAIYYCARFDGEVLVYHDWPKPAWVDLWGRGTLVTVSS VL: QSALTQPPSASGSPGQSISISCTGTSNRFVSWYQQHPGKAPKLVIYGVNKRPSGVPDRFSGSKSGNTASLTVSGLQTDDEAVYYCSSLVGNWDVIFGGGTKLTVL
0.0256

Record: PGT-123 (antibody, V domains shown) VH: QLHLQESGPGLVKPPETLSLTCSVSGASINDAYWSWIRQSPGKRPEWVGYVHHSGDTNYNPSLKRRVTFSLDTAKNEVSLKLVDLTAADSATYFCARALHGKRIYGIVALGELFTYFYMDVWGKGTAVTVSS VL: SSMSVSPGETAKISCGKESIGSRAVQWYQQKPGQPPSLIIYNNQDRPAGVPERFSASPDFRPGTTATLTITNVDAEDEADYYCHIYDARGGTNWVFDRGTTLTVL
0.0303
